B1: KLHL20 (parent)
chain: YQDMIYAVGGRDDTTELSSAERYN

# Variants of: B1
# PROTOCOL_TEXT: protein stability index of a GFP-peptide fusion (GPS, HEK-293T) (PSI 1-6); higher = more stable;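 note: lentivirally expressed fusions sorted by FACS into six bins by GFP to DsRed ratio, PSI derived from sequencing read proportions per bin multiplied by bin number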
# CONDITION_PARAMETERS: c terminus: a fixed tail appended
Readings of protein stability index for the listed variants
Give the figure by itself; no unit, no explanation.

Q2V    1.96
T14H    1.98

# evaluate next
Enquiry: Any idea what protein stability index was measured for `N24I` ?
Return: 2.02
